System: Klebsiella aerogenes DSM 30053
assay.info: fold change of Histamine concentration vs plate DMSO controls (fold change (ratio)); higher = more amine produced, active = hit call of the paper (significant change in both replicates, either direction)
conditions.used: incubation time: 27 h, anaerobic, 37 °C
Counter-ions that a name gives are not always drawn.
readout.label: fold change of Histamine concentration
Would you mind answering with just the numeric figure?

Record excerpt, results attached:
{"compound": "OCCOCCN1CCN(C2=Nc3ccccc3Sc3ccccc32)CC1 [Quetiapine hemifumarate] (20 µM)", "measurement.target": "Klebsiella aerogenes DSM 30053", "meas.value": 0.894}
{"compound": "O=c1oc2ccccc2c(O)c1Cc1c(O)c2ccccc2oc1=O [Dicumarol] (20 µM)", "measurement.target": "Klebsiella aerogenes DSM 30053", "meas.value": 1}
{"compound": "CCOC(=O)N1CCC(=C2c3ccc(Cl)cc3CCc3cccnc32)CC1 [Loratadine] (20 µM)", "measurement.target": "Klebsiella aerogenes DSM 30053", "meas.value": 0.98}

// next item, fold change of Histamine concentration requested
Task: Name the recorded fold change of Histamine concentration for CC(NCCc1ccc(O)cc1)C(O)c1ccc(O)cc1 (centres undefined) [Ritodrine hydrochloride] (20 µM) .
Result: 0.979
